Molecular target: rat α9α10 nAChR (Rattus norvegicus, UniProt P43144+Q9JLB5)
Sequence (P43144 26-479 limits assumed): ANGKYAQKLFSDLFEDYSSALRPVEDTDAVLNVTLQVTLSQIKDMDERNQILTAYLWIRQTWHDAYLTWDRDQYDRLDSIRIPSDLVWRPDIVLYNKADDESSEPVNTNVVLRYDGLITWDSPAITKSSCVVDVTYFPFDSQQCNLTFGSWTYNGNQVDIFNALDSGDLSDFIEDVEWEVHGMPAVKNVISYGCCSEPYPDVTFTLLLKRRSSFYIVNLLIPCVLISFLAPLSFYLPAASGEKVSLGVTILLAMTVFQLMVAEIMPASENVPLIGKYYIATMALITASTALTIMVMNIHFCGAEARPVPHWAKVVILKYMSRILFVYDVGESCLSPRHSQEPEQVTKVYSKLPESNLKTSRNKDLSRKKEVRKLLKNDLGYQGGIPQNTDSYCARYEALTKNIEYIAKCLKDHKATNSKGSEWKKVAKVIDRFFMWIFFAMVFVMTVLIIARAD
Sequence (Q9JLB5 25-447 limits assumed): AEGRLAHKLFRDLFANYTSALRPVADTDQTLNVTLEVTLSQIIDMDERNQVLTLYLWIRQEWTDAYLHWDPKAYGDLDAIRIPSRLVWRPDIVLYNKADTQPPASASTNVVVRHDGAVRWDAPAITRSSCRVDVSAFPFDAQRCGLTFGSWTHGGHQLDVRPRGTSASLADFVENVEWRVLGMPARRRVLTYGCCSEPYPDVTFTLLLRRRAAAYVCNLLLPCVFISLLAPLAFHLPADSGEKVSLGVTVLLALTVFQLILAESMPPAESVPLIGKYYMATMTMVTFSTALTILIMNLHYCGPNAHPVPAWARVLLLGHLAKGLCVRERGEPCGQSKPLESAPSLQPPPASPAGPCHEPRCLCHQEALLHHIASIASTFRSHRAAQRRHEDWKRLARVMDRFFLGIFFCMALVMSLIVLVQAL
Experiment: cell-based
Assay type: cell-based
Details: α9α10 nAChR IC50 (nM) Rat
Bridge positions count the residues as written; N and C are the ends. Square brackets hold non-standard residues; d marks the D form. Triazole bridges read from a SMILES are 1,4-linked. Peptide text beside a SMILES is read from it. Tyr(3-I) = N[C@@H](Cc1ccc(O)c(I)c1)C(=O)O; Orn(N3) = [N-]=[N+]=NCCC[C@H](N)C(=O)O; Dap(N3) = [N-]=[N+]=NC[C@H](N)C(=O)O; Cit = NC(=O)NCCC[C@H](N)C(=O)O; Hpra = C#CCC[C@H](N)C(=O)O; Pra = C#CC[C@H](N)C(=O)O
Please use fulfilled for IC50 under 10 nM and not fulfilled for everything else, ties included.

// known answers, use as guide
C[C@@H](O)[C@@H]1NC(=O)[C@@H]2Cc3cn(nn3)C[C@@H](C(=O)N[C@@H](Cc3ccc(O)cc3)C(N)=O)NC(=O)[C@H](CCC(N)=O)NC(=O)[C@H](Cc3ccc(O)c(I)c3)NC(=O)[C@H](CCCNC(N)=O)NC(=O)[C@H](CSSC[C@H](NC(=O)CN)C(=O)N2)NC(=O)[C@H](CCCNC(=N)N)NC(=O)[C@@H]2CCCN2C(=O)[C@H](CC(=O)O)NC1=O [If] (H-GC[Pra]TDPRC[Cit][Tyr(3-I)]Q[Dap(N3)]Y-NH2; disulfide 2-8; triazole 3-12)    not fulfilled
C[C@@H](O)[C@@H]1NC(=O)[C@@H]2Cn3cc(nn3)CCC[C@@H](C(=O)N[C@@H](Cc3ccc(O)cc3)C(=O)O)NC(=O)[C@H](CCC(N)=O)NC(=O)[C@H](Cc3c[nH]c4ccccc34)NC(=O)[C@H](CCCNC(N)=O)NC(=O)[C@H](CSSC[C@H](NC(=O)CN)C(=O)N2)NC(=O)[C@H](CCCNC(=N)N)NC(=O)[C@@H]2CCCN2C(=O)[C@H](CC(=O)O)NC1=O    fulfilled
C[C@@H](O)[C@@H]1NC(=O)[C@@H]2CCCc3cn(nn3)C[C@@H](C(=O)N[C@@H](Cc3ccc(O)cc3)C(=O)O)NC(=O)[C@H](CCC(N)=O)NC(=O)[C@H](Cc3c[nH]c4ccccc34)NC(=O)[C@H](CCCNC(N)=O)NC(=O)[C@H](CSSC[C@H](NC(=O)CN)C(=O)N2)NC(=O)[C@H](CCCNC(=N)N)NC(=O)[C@@H]2CCCN2C(=O)[C@H](CC(=O)O)NC1=O    not fulfilled

## Task A record lists C[C@@H](O)[C@@H]1NC(=O)[C@@H]2Cc3cn(nn3)CCC[C@@H](C(=O)N[C@@H](Cc3ccc(O)cc3)C(N)=O)NC(=O)[C@H](CCC(N)=O)NC(=O)[C@H](Cc3ccc(O)c(I)c3)NC(=O)[C@H](CCCNC(N)=O)NC(=O)[C@H](CSSC[C@H](NC(=O)CN)C(=O)N2)NC(=O)[C@H](CCCNC(=N)N)NC(=O)[C@@H]2CCCN2C(=O)[C@H](CC(=O)O)NC1=O [Ib′] (H-GC[Pra]TDPRC[Cit][Tyr(3-I)]Q[Orn(N3)]Y-NH2; disulfide 2-8; triazole 3-12) . Is its IC50 below 10 nM?
## Result fulfilled

## Task Then C[C@@H](O)[C@@H]1NC(=O)[C@@H]2CCc3cn(nn3)CCC[C@@H](C(=O)N[C@@H](Cc3ccc(O)cc3)C(=O)O)NC(=O)[C@H](CCC(N)=O)NC(=O)[C@H](Cc3c[nH]c4ccccc34)NC(=O)[C@H](CCCNC(N)=O)NC(=O)[C@H](CSSC[C@H](NC(=O)CN)C(=O)N2)NC(=O)[C@H](CCCNC(=N)N)NC(=O)[C@@H]2CCCN2C(=O)[C@H](CC(=O)O)NC1=O [Ig] (H-GC[Hpra]TDPRC[Cit]WQ[Orn(N3)]Y-OH; disulfide 2-8; triazole 3-12) ?
## Result not fulfilled

## Task Please answer likewise for C[C@@H](O)[C@@H]1NC(=O)[C@@H]2CCCn3cc(nn3)C[C@@H](C(=O)N[C@@H](Cc3ccc(O)cc3)C(N)=O)NC(=O)[C@H](CCC(N)=O)NC(=O)[C@H](Cc3ccc(O)c(I)c3)NC(=O)[C@H](CCCNC(N)=O)NC(=O)[C@H](CSSC[C@H](NC(=O)CN)C(=O)N2)NC(=O)[C@H](CCCNC(=N)N)NC(=O)[C@@H]2CCCN2C(=O)[C@H](CC(=O)O)NC1=O [Ie] (H-GC[Orn(N3)]TDPRC[Cit][Tyr(3-I)]Q[Pra]Y-NH2; disulfide 2-8; triazole 3-12)
## Result fulfilled

Sourced from patent US11612661B2
